Parameter: % Inhibition of Gadd45β-MKK7 binding. Scope: all listed entries.
Biological target: T1, Gadd45β/MKK7 complex (biotin-hGadd45β with coated GST-MKK7, ELISA format) (human) (UniProt O75293)
T1 sequence (biotinylated (sites not stated), looked up) 1: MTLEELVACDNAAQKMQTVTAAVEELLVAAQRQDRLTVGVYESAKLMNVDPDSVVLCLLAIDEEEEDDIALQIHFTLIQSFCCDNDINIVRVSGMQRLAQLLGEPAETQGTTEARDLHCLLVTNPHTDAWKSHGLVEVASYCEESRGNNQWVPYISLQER
T1 sequence (biotinylated (sites not stated), looked up) 2: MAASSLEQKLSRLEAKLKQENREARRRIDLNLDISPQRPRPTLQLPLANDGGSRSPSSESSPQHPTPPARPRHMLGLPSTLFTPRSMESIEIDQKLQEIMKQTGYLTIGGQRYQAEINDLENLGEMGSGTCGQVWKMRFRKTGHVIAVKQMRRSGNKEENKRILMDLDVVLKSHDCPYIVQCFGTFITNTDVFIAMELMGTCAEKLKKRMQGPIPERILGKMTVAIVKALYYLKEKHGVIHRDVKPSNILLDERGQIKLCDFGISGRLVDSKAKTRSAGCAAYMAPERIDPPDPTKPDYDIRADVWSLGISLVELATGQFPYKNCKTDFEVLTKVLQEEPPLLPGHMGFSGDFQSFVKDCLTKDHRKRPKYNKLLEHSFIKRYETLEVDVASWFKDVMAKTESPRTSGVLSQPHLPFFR
Experiment: competition ELISA; coated GST-MKK7, biotin-hGadd45β; single dose
* marks the point of attachment. Cbz = O=C(OCc1ccccc1)*; Bz = O=C(c1ccccc1)*
Field format: number, assumed %, no unit text.

Solved cases below.
query: Input Ac-YDHQ-NH2 [Ac-YDHQ-NH2] , output reported % Inhibition of Gadd45β-MKK7 binding.
result: 99

query: Input Ac-YDHFK(Cbz)-NH2 (SMILES CC(=O)N[C@@H](Cc1ccc(O)cc1)C(=O)N[C@@H](CC(=O)O)C(=O)N[C@@H](Cc1c[nH]cn1)C(=O)N[C@@H](Cc1ccccc1)C(=O)N[C@@H](CCCCNC(=O)OCc1ccccc1)C(N)=O) [Ac-YDHFLys(Z)-NH2] , output reported % Inhibition of Gadd45β-MKK7 binding.
result: 8

query: Input {3‑OH‑4MeO‑benzoic acid}-YDHQ-NH2 (not fully specified) [3-OH-4MeO-Benzoid acid-YDHQ-NH2] , output reported % Inhibition of Gadd45β-MKK7 binding.
result: 7

query: Input Ac-YERFK(Cbz)-NH2 (SMILES CC(=O)N[C@@H](Cc1ccc(O)cc1)C(=O)N[C@@H](CCC(=O)O)C(=O)N[C@@H](CCCNC(=N)N)C(=O)N[C@@H](Cc1ccccc1)C(=O)N[C@@H](CCCCNC(=O)OCc1ccccc1)C(N)=O) [Ac-YERFLys(Z)-NH2] , output reported % Inhibition of Gadd45β-MKK7 binding.
result: 6

Lab note: next binder to report on.
query: Input Bz-YDHQ-NH2 [Benzoic acid-YDHQ-NH2] , output reported % Inhibition of Gadd45β-MKK7 binding.
result: 1
